The measurements presented in this section are drawn from patent US20250304644A1.

- target-or-test-system: human SNAP-tagged GLP-1R (human, UniProt P43220 24-463, SNAP tag labeled with Tag-Lite SNAP-Lumi4-Tb)
- assay-info: cell-based or functional assay
*1 amine or outer side, *2 acyl side, *3 side chain or, on linkers, in order; H or OH if unused. Where no end group is shown, it is not given here. Side-chain parts run from the residue outwards. [ ]: non-standard residue; d: D form. The star is where a group is joined. C18 diacid = O=C(O)CCCCCCCCCCCCCCCCC(=O)*; γGlu = O=C(O)[C@H](CCC(=O)[*:2])N[*:1]; AEEA = NCCOCCOCC(=O)O; Aib = CC(C)(N)C(=O)O
Catalogue of Relative hGLP-1R internalization (%) readings, one per entry.
Give a bare numeral; the unit % is implied.

• H[Aib]DGTFISDYSTILDALAARDFINWLIQTKITK([AEEA-AEEA-γGlu-C18 diacid])-OH [Compound 28] = 1.14
• HADGTFTSDYST[Aib]LDK([AEEA-AEEA-γGlu-C18 diacid])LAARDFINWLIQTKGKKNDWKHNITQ-OH [Compound 22] = 93.7
• HADGTFTSDYSTILDK([AEEA-AEEA-γGlu-C18 diacid])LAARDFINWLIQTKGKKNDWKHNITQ-OH [Compound 21] = 113

Now look at this one.
**Query** Give the measured Relative hGLP-1R internalization (%) of HADGTFTSDYSIILDK([AEEA-AEEA-γGlu-C18 diacid])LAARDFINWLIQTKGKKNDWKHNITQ-OH [Compound 20] .
**Result** 109
